This section lists AC50 readings for Mu-type opioid receptor (Homo sapiens).

See these solved cases before continuing.
- molecule: "O=[N+]([O-])O[C@@H]1CO[C@H]2[C@@H]1OC[C@@H]2O [ISOSORBIDE MONONITRATE]"
  meas.value: "> 30 µM"
- molecule: "CN1CCC(=C2c3ccccc3CCc3sccc32)CC1 [PIZOTYLINE]"
  meas.value: "> 10 µM"
- molecule: "COc1ccc(CCNCC(O)COc2cccc(C)c2)cc1OC (centres undefined) [BEVANTOLOL]"
  meas.value: "> 10 µM"
- molecule: "c1cnc(N2CCN(Cc3ccc4c(c3)OCO4)CC2)nc1 [PIRIBEDIL]"
  meas.value: "> 30 µM"
- molecule: "CN1C(C(=O)Nc2ccccn2)=C(O)c2sc(Cl)cc2S1(=O)=O [LORNOXICAM]"
  meas.value: "> 30 µM"

Need AC50 for each of these molecules.
1. Clc1ccc2nsnc2c1NC1=NCCN1 [TIZANIDINE]
2. Cn1nnc2c(C(N)=O)ncn2c1=O [TEMOZOLOMIDE]
3. c1ccc([C@H]2CN3CCSC3=N2)cc1 [LEVAMISOLE]

Result string:
1. > 30 µM
2. > 30 µM
3. > 30 µM

Need AC50 for each of these molecules.
1. CCCCCNC(=N)N/N=C/c1c[nH]c2ccc(OC)cc12 [TEGASEROD]
2. Cc1ccc(S(=O)(=O)NC(=O)NN2CC3CCCC3C2)cc1 (centres undefined) [GLICLAZIDE]
3. CC(C)(C)NCC(O)COc1cccc2c1CCC(=O)N2 (centres undefined) [CARTEOLOL]
4. C[C@@H](O)[C@H]1C(=O)N2C(C(=O)O)=C(S[C@@H]3CN[C@H](C(=O)N(C)C)C3)[C@H](C)[C@H]12 [MEROPENEM]

Result string:
["2.8 µM", "> 30 µM", "> 30 µM", "> 300 µM"]

Need AC50 for each of these molecules.
1. C[C@H]1CNCCc2ccc(Cl)cc21 [LORCASERIN]
2. CC(C)Cn1cnc2c(N)nc3ccccc3c21 [IMIQUIMOD]
3. CN(C)/N=N/c1[nH]cnc1C(N)=O [DACARBAZINE]

Result string:
> 30 µM
> 30 µM
> 30 µM

Need AC50 for each of these molecules.
1. NCC[C@H](O)C(=O)N[C@@H]1C[C@H](N)[C@@H](O[C@H]2O[C@H](CN)[C@@H](O)[C@H](O)[C@H]2O)[C@H](O)[C@H]1O[C@H]1O[C@H](CO)[C@@H](O)[C@H](N)[C@H]1O [AMIKACIN]
2. C[C@]12CCC(=O)C=C1CC[C@@H]1[C@@H]2[C@@H](O)C[C@@]2(C)[C@H]1CC[C@]2(O)C(=O)CO [HYDROCORTISONE]
3. COCCCN1CCC(NC(=O)c2cc(Cl)c(N)c3c2OCC3)CC1 [PRUCALOPRIDE]

Result string:
1. > 30 µM
2. > 30 µM
3. > 30 µM

Query string: Specify AC50 for N[C@@H]1[C@H]2CN(c3nc4c(cc3F)c(=O)c(C(=O)O)cn4-c3ccc(F)cc3F)C[C@@H]12 [TROVAFLOXACIN] , system Mu-type opioid receptor (Homo sapiens). Further: assay procedure not described here.
Result string: > 30 µM

* * *

- assayed.target: Muscarinic acetylcholine receptor M1 (Homo sapiens, UniProt P11229); further: assay procedure not described here
- Sequence (P11229 whole entry): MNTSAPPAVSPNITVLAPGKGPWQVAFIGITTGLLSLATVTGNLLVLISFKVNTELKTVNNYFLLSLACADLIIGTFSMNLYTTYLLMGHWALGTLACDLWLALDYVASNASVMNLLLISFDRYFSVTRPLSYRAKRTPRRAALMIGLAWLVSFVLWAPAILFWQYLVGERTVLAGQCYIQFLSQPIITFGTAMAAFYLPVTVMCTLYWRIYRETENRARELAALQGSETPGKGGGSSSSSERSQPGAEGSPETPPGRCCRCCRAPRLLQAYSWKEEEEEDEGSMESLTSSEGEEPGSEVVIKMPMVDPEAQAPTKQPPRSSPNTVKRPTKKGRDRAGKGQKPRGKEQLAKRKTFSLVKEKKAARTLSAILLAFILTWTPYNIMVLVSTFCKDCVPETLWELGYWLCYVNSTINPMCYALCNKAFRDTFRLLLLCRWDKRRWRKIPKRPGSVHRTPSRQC
- Type: functional, cell-based
Would you kindly list AC50 for each of these compounds?

- compound: "COC(c1ccccc1)(c1ccccc1)[C@H](Oc1nc(C)cc(C)n1)C(=O)O [AMBRISENTAN]"
  assayed.target: "Muscarinic acetylcholine receptor M1 (Homo sapiens, UniProt P11229)"
  AC50: "> 30 µM"
- compound: "C=CCN1C[C@H](C(=O)N(CCCN(C)C)C(=O)NCC)C[C@@H]2c3cccc4[nH]cc(c34)C[C@H]21 [CABERGOLINE]"
  assayed.target: "Muscarinic acetylcholine receptor M1 (Homo sapiens, UniProt P11229)"
  AC50: "> 30 µM"
- compound: "CN(C)CC(c1ccc(O)cc1)C1(O)CCCCC1 (stereo not drawn) [DESVENLAFAXINE]"
  assayed.target: "Muscarinic acetylcholine receptor M1 (Homo sapiens, UniProt P11229)"
  AC50: "> 30 µM"
- compound: "CC(=O)Oc1c(C)c(C)c2c(c1C)CC[C@@](C)(CCC[C@H](C)CCC[C@H](C)CCCC(C)C)O2"
  assayed.target: "Muscarinic acetylcholine receptor M1 (Homo sapiens, UniProt P11229)"
  AC50: "> 30 µM"
- compound: "Clc1ccc(C(OCCN2CCCCC2)c2ccccc2)cc1 (stereo not drawn) [CLOPERASTINE]"
  assayed.target: "Muscarinic acetylcholine receptor M1 (Homo sapiens, UniProt P11229)"
  AC50: "0.551 µM"
- compound: "NC1CCN(c2c(F)cc3c(=O)c(C(=O)O)cn(C4CC4)c3c2Cl)C1 (stereo not drawn) [CLINAFLOXACIN]"
  assayed.target: "Muscarinic acetylcholine receptor M1 (Homo sapiens, UniProt P11229)"
  AC50: "> 30 µM"

Need AC50 for each of these compounds.
1. CC[N+]1(C)[C@@H]2CC(OC(=O)[C@H](CO)c3ccccc3)C[C@H]1[C@@H]1O[C@@H]12 (stereo partly drawn) [OXITROPIUM]
2. CC(C)(C)CC(C)(C)c1ccc(O)c(Cc2ccc(Cl)cc2Cl)c1 [CLOFOCTOL]

Result string:
1: 0.003 µM; 2: > 10 µM

* * *

Would you kindly list AC50 for each of these compounds?
- assayed.target: Alpha-2C adrenergic receptor (Homo sapiens, UniProt P18825); further: assay procedure not described here
- Sequence (P18825 whole entry): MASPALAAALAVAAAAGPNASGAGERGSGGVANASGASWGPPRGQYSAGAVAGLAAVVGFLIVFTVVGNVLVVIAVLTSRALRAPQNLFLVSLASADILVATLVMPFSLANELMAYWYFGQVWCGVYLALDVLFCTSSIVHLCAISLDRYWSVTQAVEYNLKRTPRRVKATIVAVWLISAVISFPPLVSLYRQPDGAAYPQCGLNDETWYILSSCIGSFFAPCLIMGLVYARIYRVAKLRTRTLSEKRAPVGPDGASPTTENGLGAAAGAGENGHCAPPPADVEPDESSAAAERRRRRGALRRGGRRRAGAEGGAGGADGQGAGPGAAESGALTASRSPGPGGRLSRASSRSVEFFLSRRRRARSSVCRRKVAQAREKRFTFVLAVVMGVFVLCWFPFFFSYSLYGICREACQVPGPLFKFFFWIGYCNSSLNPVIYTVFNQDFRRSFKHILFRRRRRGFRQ
- Type: functional

See these solved cases before continuing.
- compound: "COc1ccccc1OCC(O)CN1CCN(CC(=O)Nc2c(C)cccc2C)CC1 (centres undefined)"
  AC50: "1.4 µM"
- compound: "O=C(O)/C=C/c1ccc(Cn2ccnc2)cc1"
  AC50: "> 30 µM"

Need AC50 for each of these compounds.
1. CCc1c(Cl)c(O)c(Cl)c(O)c1C(=O)O[C@H]1[C@H](O)[C@H](OC)[C@H](OC/C2=C\C=C\C[C@H](O)/C(C)=C/[C@H](CC)[C@@H](O[C@@H]3OC(C)(C)[C@@H](OC(=O)C(C)C)[C@H](O)[C@@H]3O)/C(C)=C/C(C)=C/C[C@@H]([C@@H](C)O)OC2=O)O[C@@H]1C
2. Nc1ccn([C@H]2CC[C@@H](CO)O2)c(=O)n1

Result string:
> 30 µM
> 10 µM

* * *

- assayed.target: D(3) dopamine receptor (Homo sapiens, UniProt P35462); further: assay procedure not described here
- Sequence (P35462 whole entry): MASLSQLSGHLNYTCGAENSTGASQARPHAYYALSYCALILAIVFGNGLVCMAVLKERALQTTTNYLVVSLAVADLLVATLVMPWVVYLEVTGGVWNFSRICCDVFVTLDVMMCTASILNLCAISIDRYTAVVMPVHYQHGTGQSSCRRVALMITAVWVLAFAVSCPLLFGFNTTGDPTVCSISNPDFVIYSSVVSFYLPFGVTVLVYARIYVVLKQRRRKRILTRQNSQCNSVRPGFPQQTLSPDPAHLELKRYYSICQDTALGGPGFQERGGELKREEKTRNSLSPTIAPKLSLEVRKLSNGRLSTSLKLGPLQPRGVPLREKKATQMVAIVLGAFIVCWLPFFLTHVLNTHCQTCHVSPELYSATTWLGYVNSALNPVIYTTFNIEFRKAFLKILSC
endpoint.label: AC50

- compound: "CCN1CCN(C(=O)N[C@@H](C(=O)N[C@@H]2C(=O)N3C(C(=O)O)=C(CSc4nnnn4C)CS[C@H]23)c2ccc(O)cc2)C(=O)C1=O [CEFOPERAZONE]"
  meas.value: "> 30 µM"

Need AC50 for each of these compounds.
1. CNC(=O)c1ccccc1Sc1ccc2c(/C=C/c3ccccn3)n[nH]c2c1 [AXITINIB]
2. Cc1cc(C)c(NC(=O)CN(CC(=O)O)CC(=O)O)c(C)c1Br [MEBROFENIN]
3. C[C@H]1CNCCc2ccc(Cl)cc21 [LORCASERIN]
4. COc1ccc2c3c1O[C@H]1C(=O)CC[C@@]4(O)[C@@H](C2)N(C)CC[C@]314 [OXYCODONE]
5. CCCCN1C[C@H](O)[C@@H](O)[C@H](O)[C@H]1CO
6. COc1cc2nc(N(C)CCCNC(=O)C3CCCO3)nc(N)c2cc1OC (centres undefined) [ALFUZOSIN]
7. CCN(CC)C(=O)N[C@H]1C[C@@H]2c3cccc4[nH]cc(c34)C[C@H]2N(C)C1 [TERGURIDE]

Result string:
> 30 µM
22 µM
> 30 µM
> 30 µM
> 30 µM
15 µM
0.006 µM

Query string: Dear colleague, please send me the reported AC50 for C=CCC1(C(C)CC)C(=O)NC(=O)NC1=O (centres undefined) [TALBUTAL] when you can.
Result string: > 30 µM

* * *

Would you kindly list AC50 for each of these molecules?
- assayed.target: Adenosine receptor A1 (Homo sapiens, UniProt P30542); further: assay procedure not described here
- Sequence (P30542 whole entry): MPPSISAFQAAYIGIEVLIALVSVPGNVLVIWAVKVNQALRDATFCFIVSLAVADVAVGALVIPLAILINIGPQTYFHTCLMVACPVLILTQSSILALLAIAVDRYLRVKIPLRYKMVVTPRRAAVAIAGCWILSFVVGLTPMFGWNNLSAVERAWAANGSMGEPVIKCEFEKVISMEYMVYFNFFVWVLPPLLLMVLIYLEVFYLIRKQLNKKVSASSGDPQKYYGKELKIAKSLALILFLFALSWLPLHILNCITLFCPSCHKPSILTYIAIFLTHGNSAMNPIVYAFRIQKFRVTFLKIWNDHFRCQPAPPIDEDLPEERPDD

See these solved cases before continuing.
- molecule: "NC(=O)OCC(COC(N)=O)c1ccccc1 [FELBAMATE]"
  assayed.target: "Adenosine receptor A1 (Homo sapiens, UniProt P30542)"
  AC50: "> 10 µM"
- molecule: "C[C@]12CC[C@H]3[C@@H](CCC4=CC(=O)CC[C@@]43C)[C@@H]1CC[C@@H]2O"
  assayed.target: "Adenosine receptor A1 (Homo sapiens, UniProt P30542)"
  AC50: "> 10 µM"

Need AC50 for each of these molecules.
1. O=C(O)CCCCCCCC(=O)O
2. C=CCN1C[C@H](C(=O)N(CCCN(C)C)C(=O)NCC)C[C@@H]2c3cccc4[nH]cc(c34)C[C@H]21
3. N#Cc1ccc([C@H]2CCc3cncn32)c(F)c1
4. CC(=O)Nc1ccc(O)cc1
5. CO/N=C(\C(=O)N[C@@H]1C(=O)N2C(C(=O)O)=C(CSc3nnnn3C)CS[C@H]12)c1csc(N)n1

Result string:
1. > 10 µM
2. > 10 µM
3. > 10 µM
4. > 30 µM
5. > 30 µM

Need AC50 for each of these molecules.
1. CN1C(=O)C(O)N=C(c2ccccc2)c2cc(Cl)ccc21 (centres undefined)
2. COc1cc(NC(C)CCCN)c2ncccc2c1 (centres undefined)

Result string:
1. > 30 µM
2. > 30 µM
